- MEASURED_ON: human FGFR2b (Homo sapiens, UniProt P21802)
- Sequence (P21802 22-822 isoform P21802-3 limits assumed): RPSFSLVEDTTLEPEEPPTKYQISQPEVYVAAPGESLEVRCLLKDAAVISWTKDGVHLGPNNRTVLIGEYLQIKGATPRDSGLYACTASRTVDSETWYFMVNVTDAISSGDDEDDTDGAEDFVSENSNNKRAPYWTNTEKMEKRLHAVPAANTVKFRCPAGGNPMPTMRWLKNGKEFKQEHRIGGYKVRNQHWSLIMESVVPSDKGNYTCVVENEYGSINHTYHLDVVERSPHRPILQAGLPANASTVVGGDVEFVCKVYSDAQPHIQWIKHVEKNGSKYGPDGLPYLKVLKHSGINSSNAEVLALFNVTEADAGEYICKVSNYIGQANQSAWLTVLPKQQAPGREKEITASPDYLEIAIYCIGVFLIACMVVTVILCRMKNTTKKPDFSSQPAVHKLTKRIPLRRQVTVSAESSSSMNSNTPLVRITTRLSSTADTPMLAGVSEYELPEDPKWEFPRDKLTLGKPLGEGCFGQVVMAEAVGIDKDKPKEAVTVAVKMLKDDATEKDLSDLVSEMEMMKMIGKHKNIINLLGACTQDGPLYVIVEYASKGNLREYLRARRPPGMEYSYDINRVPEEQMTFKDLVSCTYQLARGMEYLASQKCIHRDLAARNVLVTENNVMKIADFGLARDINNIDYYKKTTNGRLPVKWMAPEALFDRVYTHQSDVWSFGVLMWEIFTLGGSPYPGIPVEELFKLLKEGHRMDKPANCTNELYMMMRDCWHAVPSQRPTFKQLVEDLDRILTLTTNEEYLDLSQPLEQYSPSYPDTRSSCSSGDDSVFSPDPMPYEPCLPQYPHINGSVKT
- ASSAY: SPR affinity determination, human FGFR2b (Example 9)
- Assay type: binding
- CONDITION_SET: kd/ka
pKd: −log10 of the molar value.

MOLECULE: BGAh9179: humanized anti-FGFR2b IgG1 antibody from murine BGAm1371; VH SEQ ID NO: 21, VL SEQ ID NO: 22 (antibody, V domains shown, Synthetic: VH AA; Synthetic: VL AA) VH: QVQLVQSGAEVKKPGASVKVSCKASGYTITDTYIHWVRQAPGQGLEWMGRIDPAEGNTMFASEFQGRVTMTADTSTSTVYMELSSLRSEDTAVYYCARSKIHYDYDEGFAYWGQGTLVTVSS VL: DIVLTQSPDSLAVSLGERATINCRASESVDDYGYSFLHWYQQKPGQPPKLLIYRASNLESGVPDRFSGSGSGTDFTLTISSLQAEDVAVYYCQQSNQNPRTFGGGTKVEIK
pKd: 7.66
